System: HUVEC (ATCC) cell line
Test: Cytotoxicity, metabolic cell activity (CellTiter 96 AQueous One), HUVEC
Assay type: cell-based
Conditions: compound 1 μM, two independent experiments
propertyName: mean percentage of metabolic activity of treated cells, HUVEC 1 μM (%)
Answers are plain numbers, in %.

COc1ccc2nccc(CCN3CCC(NCc4ccc(Cl)cc4)CC3)c2n1 [Compound C6]    86.1
COc1ccc2nccc(CCN3CCC(NCc4ccc(OC(F)F)c(OC)c4)CC3)c2n1 [Compound C9]    89.6
COc1ccc2nccc(CCN3CCC(NCc4ccc(CO)cc4)CC3)c2n1 [Compound C2]    97.7
COc1ccc2nccc(CCN3CCC(NCc4ccc(I)cc4)CC3)c2n1 [Compound C8]    108.0
COc1ccc2nccc(CCN3CCC(NCc4ccc(Br)cc4)CC3)c2n1 [Compound C7]    92.0
COc1ccc2nccc(CCN3CCC(NCc4ccccc4)CC3)c2n1 [Compound C1]    92.9
C=CCn1cc(CNC2CCN(CCc3ccnc4ccc(OC)nc34)CC2)cn1 [Compound C11]    88.6
COc1ccc2nccc(CCN3CCC(NCc4ccc(N(C)C)cc4)CC3)c2n1 [Compound C4]    105.9

Please look at the items below and tell me mean percentage of metabolic activity of treated cells, HUVEC 1 μM for each one, in order.
1. COc1ccc2nccc(CCN3CCC(NCc4ccc(C(N)=O)cc4)CC3)c2n1 [Compound C3]
2. COc1ccc2nccc(CCN3CCC(NCc4ccc(OC(F)F)c(O)c4)CC3)c2n1 [Compound C10]
3. COc1ccc2nccc(CCN3CCC(NCc4ccc(F)cc4)CC3)c2n1 [Compound C5]

Data returned:
[105.8, 96.4, 105.2]

---

Target: Staphylococcus aureus DNA gyrase (Staphylococcus aureus, UniProt P0A0K8+P20831)
Sequence (P20831 whole entry): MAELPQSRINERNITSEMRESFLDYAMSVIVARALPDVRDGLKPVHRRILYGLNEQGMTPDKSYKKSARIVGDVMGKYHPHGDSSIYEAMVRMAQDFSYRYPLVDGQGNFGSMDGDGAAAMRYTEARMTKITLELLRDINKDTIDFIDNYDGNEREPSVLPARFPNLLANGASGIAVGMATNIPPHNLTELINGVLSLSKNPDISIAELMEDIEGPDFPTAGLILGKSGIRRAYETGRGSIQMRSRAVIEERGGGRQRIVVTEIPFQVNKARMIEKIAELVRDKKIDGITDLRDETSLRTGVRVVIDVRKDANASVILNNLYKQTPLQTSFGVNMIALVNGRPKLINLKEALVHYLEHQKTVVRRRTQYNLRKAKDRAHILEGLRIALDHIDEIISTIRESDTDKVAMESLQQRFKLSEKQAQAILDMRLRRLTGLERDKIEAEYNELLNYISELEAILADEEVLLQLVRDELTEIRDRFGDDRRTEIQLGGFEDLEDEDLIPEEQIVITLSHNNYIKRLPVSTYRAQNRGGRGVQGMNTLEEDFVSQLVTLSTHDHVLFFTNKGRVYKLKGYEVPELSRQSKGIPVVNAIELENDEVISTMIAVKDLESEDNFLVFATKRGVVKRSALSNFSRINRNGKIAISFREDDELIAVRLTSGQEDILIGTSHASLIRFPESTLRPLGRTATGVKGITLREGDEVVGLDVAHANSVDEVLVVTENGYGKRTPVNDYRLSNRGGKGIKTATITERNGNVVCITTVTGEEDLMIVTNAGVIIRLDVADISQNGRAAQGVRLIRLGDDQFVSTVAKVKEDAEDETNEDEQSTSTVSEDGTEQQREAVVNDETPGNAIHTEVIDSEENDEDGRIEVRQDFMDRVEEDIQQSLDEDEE
Sequence (P0A0K8 whole entry): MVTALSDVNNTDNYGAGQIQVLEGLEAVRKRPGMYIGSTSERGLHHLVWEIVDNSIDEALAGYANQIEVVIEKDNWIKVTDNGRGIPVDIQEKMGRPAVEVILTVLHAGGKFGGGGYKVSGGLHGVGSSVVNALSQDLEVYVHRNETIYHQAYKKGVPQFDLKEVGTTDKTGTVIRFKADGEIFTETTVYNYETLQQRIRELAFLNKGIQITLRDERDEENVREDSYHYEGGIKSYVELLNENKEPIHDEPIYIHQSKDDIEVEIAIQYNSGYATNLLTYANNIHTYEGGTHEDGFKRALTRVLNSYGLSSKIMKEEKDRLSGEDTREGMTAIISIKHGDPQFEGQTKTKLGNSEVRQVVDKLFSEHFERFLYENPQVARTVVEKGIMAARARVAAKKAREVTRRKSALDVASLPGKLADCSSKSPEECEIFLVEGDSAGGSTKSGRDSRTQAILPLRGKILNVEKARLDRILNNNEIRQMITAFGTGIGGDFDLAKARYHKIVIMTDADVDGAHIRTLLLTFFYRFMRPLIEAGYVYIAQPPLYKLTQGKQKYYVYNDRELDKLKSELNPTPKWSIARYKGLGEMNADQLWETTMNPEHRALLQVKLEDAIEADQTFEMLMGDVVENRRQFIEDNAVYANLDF
Assay: biochemical
Would you mind telling me the reported pIC50 of each entry?
One number for each entry, as −log10 of the molar value.

Here's what some known entries look like.
COc1ccc2nccc(CCN3CCC(NCc4ccccc4)CC3)c2n1    5.99
COc1ccc2nccc(CCN3CCC(NCc4ccc(CO)cc4)CC3)c2n1    5.36
COc1ccc2nccc(CCN3CCC(NCc4ccc(I)cc4)CC3)c2n1    7.96
COc1ccc2nccc(CCN3CCC(NCc4ccc(OC(F)F)c(O)c4)CC3)c2n1    6.48
C=CCn1cc(CNC2CCN(CCc3ccnc4ccc(OC)nc34)CC2)cn1    5.96

Please look at the items below and tell me pIC50 for each one, in order.
1. COc1ccc2nccc(CCN3CCC(NCc4ccc(OC(F)F)c(OC)c4)CC3)c2n1
2. COc1ccc2nccc(CCN3CCC(NCc4ccc(C(N)=O)cc4)CC3)c2n1
3. COc1ccc2nccc(CCN3CCC(NCc4ccc(Br)cc4)CC3)c2n1
4. COc1ccc2nccc(CCN3CCC(NCc4ccc(N(C)C)cc4)CC3)c2n1
5. COc1ccc2nccc(CCN3CCC(NCc4ccc(F)cc4)CC3)c2n1

Data returned:
1. 6.46
2. 5.74
3. 8.15
4. 7.17
5. 6.26

---

System: methicillin-resistant Staphylococcus pseudintermedius S-52
Assay: MIC broth microdilution, MRSP S-52
Type: cell-based
Details: 20 hours of incubation
Hi! Just check whether MIC is below 0.5 µg/mL. Below gives Criterion met, equal or above gives Criterion not met.

COc1ccc2nccc(CCN3CCC(NCc4ccccc4)CC3)c2n1 [Compound C1]    Criterion not met
COc1ccc2nccc(CCN3CCC(NCc4ccc(Br)cc4)CC3)c2n1 [Compound C7]    Criterion met
C=CCn1cc(CNC2CCN(CCc3ccnc4ccc(OC)nc34)CC2)cn1 [Compound C11]    Criterion not met

Data request: Is MIC of COc1ccc2nccc(CCN3CCC(NCc4ccc(F)cc4)CC3)c2n1 [Compound C5] strictly below 0.5 µg/mL?
Data returned: Criterion not met

Data request: Moving on to the next compound: COc1ccc2nccc(CCN3CCC(NCc4ccc(I)cc4)CC3)c2n1 [Compound C8]
Data returned: Criterion met

Data request: Moving on to the next compound: COc1ccc2nccc(CCN3CCC(NCc4ccc(CO)cc4)CC3)c2n1 [Compound C2]
Data returned: Criterion not met

Data request: Moving on to the next compound: COc1ccc2nccc(CCN3CCC(NCc4ccc(OC(F)F)c(OC)c4)CC3)c2n1 [Compound C9]
Data returned: Criterion not met

Data request: Moving on to the next compound: COc1ccc2nccc(CCN3CCC(NCc4ccc(C(N)=O)cc4)CC3)c2n1 [Compound C3]
Data returned: Criterion not met

Data request: Moving on to the next compound: COc1ccc2nccc(CCN3CCC(NCc4ccc(OC(F)F)c(O)c4)CC3)c2n1 [Compound C10]
Data returned: Criterion not met
